I'd be grateful if you could share measured Hepatotoxicity (moderate) for these entries.
# Assay Remarks: Highest frequency of moderate liver toxicity observed during clinical trials, expressed as a percentage. [column '% BIOL' in source]
# Condition Label: human
Numbers only, in %.

Examples with their reported Hepatotoxicity (moderate) follow.
C[C@]12CCC(=O)C=C1CC[C@@H]1[C@@H]2C(=O)C[C@@]2(C)[C@H]1CC[C@]2(O)C(=O)CO ... 0
CC1=C(C/C=C(\C)CCC[C@H](C)CCC[C@H](C)CCCC(C)C)C(=O)c2ccccc2C1=O ... 0
CCNNC(=O)[C@@H]1[C@H](c2cc(OC)c(OC)c(OC)c2)c2cc3c(cc2[C@H](O)[C@H]1CO)OCO3 [MITOPODOZIDE] ... 1.3

Here's the next entry for you.
So what does the record say about Hepatotoxicity (moderate) for O=C1CN(/N=C/c2ccc(-c3ccc([N+](=O)[O-])cc3)o2)C(O)=N1 ?
1.8
